Values were extracted from PubChem BioAssay AID1345083.

Assay: Cytotoxic Profiling in HEK 293 Cell Line of Diverse Libraries Using Quantitative High-Throughput Screening; further: nearly all actives have a fitted effect of over 60% in size
Settings: HEK 293 viability, ATP luminescence (CellTiter-Glo), 48-72 h; series mostly up to 115 µM
Screen size: about 94,000 compounds; about 6,200 (6.6%) were called active. About 31% were inconclusive and are not listed. The call rests on the fitted dose curve; in most records, active means well fitted inhibition curve with a large enough effect; inconclusive means small, poorly fitted or top-dose-only effect; inactive means flat fitted curve, though single readings scatter. The list comes from a sample in which actives are over-represented; it also holds close analogues and randomly drawn compounds.
Select the correct class. Options are active, inactive and nothing else.

Observe how each entry below is paired with its result.
Cn1cnc(S(=O)(=O)N[C@@H]2CCOC[C@H]2Oc2ccc(C(N)=O)cc2)c1    inactive
COc1ccccc1-c1[nH]nc2ncc(C(=O)N3CCN(Cc4ccccc4)CC3)nc12    active
COCCNC(=O)c1cnc2n[nH]c(-c3ccccc3OC)c2n1    inactive
O=C(NCc1c[nH]c2ncccc12)c1ccccc1F    inactive

We next turn to a different compound, shown below.
Ask: Test call for this compound, please: CN(CCNC(=O)C1CCCN(S(C)(=O)=O)CCC(=O)NCC1)C1CCCCC1 (stereo not given)
Result: inactive

====

Assay: Cytotoxic Profiling in HEK 293 Cell Line of Diverse Libraries Using Quantitative High-Throughput Screening; further: nearly all actives have a fitted effect of over 60% in size
Settings: HEK 293 viability, ATP luminescence (CellTiter-Glo), 48-72 h; series mostly up to 115 µM
About 6,200 (6.6%) of roughly 94,000 compounds were called active. Another 31% or so got no clear call; they are omitted. Calls come from the whole dose curve; as a rule, active = well fitted inhibition curve with a large enough effect; inconclusive = small, poorly fitted or top-dose-only effect; inactive = flat fitted curve, though single readings scatter. The entries come from a sample that favours actives as a whole.
Please reply with one of these outcomes: y (active), n (inactive)

Check out these entries, answers already filled in.
COC(=O)N1CCN(C(=O)c2cccc(-c3ccccc3OC)c2)CC1    y
Cc1cc(C)n(CC(=O)N2CCCC3(C2)Nc2cccnc2NC3=NC2CCCC2)n1 (configuration not stated)    n
COCC(=O)N1CCN(C(=O)c2cccc(-c3ccc(OC)nn3)c2)CC1    n
O=C(N1CCCC1c1nc(CCOCC2CC2)no1)C1(c2ccccc2)CC1 (configuration not stated)    n
Cc1ccc(C2Cn3cnc(C(=O)N4CCC(C(=O)NCCC(C)C)CC4)c3CO2)cc1 (configuration not stated)    n

Ask: # fetch the recorded call for `c1cc2c(cc1-c1n[nH]c(C3CCOCC3)n1)OCO2` here
Result: n

Ask: For this molecule, state the assay outcome: `O=C(c1ccccc1F)N1CCC2(CC1)C(=O)Nc1ccccc12`
Result: n

Ask: Tell me the recorded outcome of this test for `O=[N+]([O-])c1cccc(-c2noc([C@@H]3C[C@@H](O)CN3Cc3cccc(OC(F)(F)F)c3)n2)c1` .
Result: n

====

Test: Cytotoxic Profiling in HEK 293 Cell Line of Diverse Libraries Using Quantitative High-Throughput Screening; further: nearly all actives have a fitted effect of over 60% in size
Details: HEK 293 viability, ATP luminescence (CellTiter-Glo), 48-72 h; series mostly up to 115 µM
The campaign covered roughly 94,000 compounds. About 6,200 (6.6%) were called active. Roughly 31% stayed inconclusive and do not appear here. Calls follow the shape of the dose curve; as a rule, active = well fitted inhibition curve with a large enough effect; inconclusive = small, poorly fitted or top-dose-only effect; inactive = flat fitted curve, though single readings scatter. Shown is part of a subset that was picked to be rich in actives.
The reply should name one outcome from true (1) for active, false (0) for inactive

O=C(NC1C[C@H]2CC[C@@H](C1)N2S(=O)(=O)c1ccc2c(c1)OCCO2)c1ccc(F)cc1 (stereo not given in full)    false (0)

Ask: Outcome? COCCn1ncc(N2CCCC(CC(=O)Nc3ccc(C)cc3)C2)cc1=O (stereo not given)
Result: false (0)

Ask: Give the logged outcome of this assay for the following molecule: O=C(NC1CCCc2c1[nH]c1c(Cl)cccc21)c1ccco1 (stereo not given)
Result: true (1)

Ask: Hi, do you know how `Cn1ncc2c(C(=O)NC3CCCCC3)cc(-c3cccnc3)nc21` came out in this test?
Result: false (0)

Ask: Would you mind telling me which call this test gave `Cc1ccc(NC(=O)c2cc(C(C)(C)C)nc3c2cnn3C)cc1` ?
Result: true (1)

Ask: State the result this test recorded for `Cc1csc(CCNC(=O)C[C@H]2NC(=O)c3ccccc3NC2=O)n1` .
Result: false (0)

Ask: Tell me the assay call for `Cn1ncc2c(C(=O)Nc3ccc(F)cc3)cc(-c3ccc(Cl)cc3Cl)nc21` please.
Result: false (0)

Ask: Hello, I am checking results. What call was entered for `COc1cccc(-c2cc(C(=O)N3CCN(C(C)=O)CC3)c3cnn(C)c3n2)c1` ?
Result: false (0)

Ask: In this assay, the call recorded for Cn1nc(C(=O)N2CCC(N3C(=O)C(O)C34CCCCC4)CC2)c2ccccc21 (stereo not given) was what?
Result: false (0)

Ask: // param item: `Cc1ccc(NC(=O)[C@@H]2CNC[C@H](C(=O)NCc3ccccn3)C2)cn1` ; yields the recorded call
Result: false (0)
